biological target: HDAC1 (Homo sapiens); experiment: recombinant HDAC isoform inhibition (kit); settings: mean ± SEM, three replicates
Sequence (Q13547 whole entry, species assumed, canonical isoform): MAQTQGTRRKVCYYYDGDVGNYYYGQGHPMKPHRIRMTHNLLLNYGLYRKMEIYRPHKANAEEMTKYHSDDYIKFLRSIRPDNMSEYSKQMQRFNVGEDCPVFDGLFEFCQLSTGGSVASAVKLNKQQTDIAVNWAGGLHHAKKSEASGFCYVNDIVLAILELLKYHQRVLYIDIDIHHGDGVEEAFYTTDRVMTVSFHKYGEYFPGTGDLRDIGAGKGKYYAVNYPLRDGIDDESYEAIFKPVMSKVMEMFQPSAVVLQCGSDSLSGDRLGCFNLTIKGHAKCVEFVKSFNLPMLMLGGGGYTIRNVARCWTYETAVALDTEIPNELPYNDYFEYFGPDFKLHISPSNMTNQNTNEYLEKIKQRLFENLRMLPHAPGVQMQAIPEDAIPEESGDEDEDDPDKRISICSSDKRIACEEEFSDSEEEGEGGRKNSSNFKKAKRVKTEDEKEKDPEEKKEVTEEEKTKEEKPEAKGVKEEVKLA
TEST READOUT: IC50

- COc1ccc(S(=O)(=O)N2CCc3cc(C=CC(=O)NO)ccc32)cc1 [Compound 9]: 4.62 nM

###

Recorded IC50 for the following compounds
system: interleukin-6 (IL-6); experiment: LPS-induced IL-6 production in RAW 264.7 macrophages; conditions: Mus musculus, RAW264.7, read-out: IC50 IL-6
TEST READOUT: IC50

• COc1cccc(S(=O)(=O)N2CCc3cc(C=CC(=O)NO)ccc32)c1 [Compound 8] = 20 nM
• COc1ccc(S(=O)(=O)N2CCc3cc(C=CC(=O)NO)ccc32)cc1OC [Compound 10] = 10 nM
• O=C(/C=C/c1ccc2c(ccn2S(=O)(=O)c2ccccc2)c1)NO [Compound 6] = 170 nM
• O=C(C=Cc1ccc2c(c1)CCN2S(=O)(=O)c1ccc([N+](=O)[O-])cc1)NO [Compound 13] = 20 nM
• Nc1ccc(S(=O)(=O)N2CCc3cc(C=CC(=O)NO)ccc32)cc1 [Compound 14] = > 10000 nM
• O=C(C=Cc1ccc2c(c1)CCN2S(=O)(=O)c1ccccc1)NO [Compound 7] = 20 nM
• O=C(C=Cc1ccc2c(c1)CCN2S(=O)(=O)c1ccc(F)cc1)NO [Compound 11] = 30 nM
• CN(C)c1cccc2c(S(=O)(=O)N3CCc4cc(C=CC(=O)NO)ccc43)cccc12 [Compound 15] = 90 nM
• COc1ccc(S(=O)(=O)N2CCc3cc(C=CC(=O)NO)ccc32)cc1 [Compound 9] = 10 nM
• O=C(C=Cc1ccc2c(c1)CCN2S(=O)(=O)c1ccc(Cl)cc1)NO [Compound 12] = 20 nM

###

molecular target: HDAC2 (Homo sapiens); assay: recombinant HDAC isoform inhibition (kit); conditions: mean ± SEM, three replicates
Sequence (Q92769 whole entry, species assumed, canonical isoform): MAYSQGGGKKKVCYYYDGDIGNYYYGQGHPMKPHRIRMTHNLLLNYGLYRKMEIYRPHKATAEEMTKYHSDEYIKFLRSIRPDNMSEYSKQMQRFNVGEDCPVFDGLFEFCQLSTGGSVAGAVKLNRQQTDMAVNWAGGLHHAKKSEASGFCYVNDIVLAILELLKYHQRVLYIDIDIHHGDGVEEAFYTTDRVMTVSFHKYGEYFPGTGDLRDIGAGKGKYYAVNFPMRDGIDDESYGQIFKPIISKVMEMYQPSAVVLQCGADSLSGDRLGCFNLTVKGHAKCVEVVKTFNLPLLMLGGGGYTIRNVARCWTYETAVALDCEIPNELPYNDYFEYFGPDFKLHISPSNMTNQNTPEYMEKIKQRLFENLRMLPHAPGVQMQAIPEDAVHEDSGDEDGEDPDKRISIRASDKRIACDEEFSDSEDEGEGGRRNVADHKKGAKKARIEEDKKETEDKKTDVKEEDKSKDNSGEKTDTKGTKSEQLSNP
TEST READOUT: IC50 (nM)

* COc1ccc(S(=O)(=O)N2CCc3cc(C=CC(=O)NO)ccc32)cc1 | 5.16

###

biological target: HDAC8 (Homo sapiens, UniProt Q9BY41); assay: recombinant HDAC isoform inhibition (kit); conditions: mean ± SEM, three replicates, read-out: IC50 DHAC8
Sequence (Q9BY41 whole entry, canonical isoform): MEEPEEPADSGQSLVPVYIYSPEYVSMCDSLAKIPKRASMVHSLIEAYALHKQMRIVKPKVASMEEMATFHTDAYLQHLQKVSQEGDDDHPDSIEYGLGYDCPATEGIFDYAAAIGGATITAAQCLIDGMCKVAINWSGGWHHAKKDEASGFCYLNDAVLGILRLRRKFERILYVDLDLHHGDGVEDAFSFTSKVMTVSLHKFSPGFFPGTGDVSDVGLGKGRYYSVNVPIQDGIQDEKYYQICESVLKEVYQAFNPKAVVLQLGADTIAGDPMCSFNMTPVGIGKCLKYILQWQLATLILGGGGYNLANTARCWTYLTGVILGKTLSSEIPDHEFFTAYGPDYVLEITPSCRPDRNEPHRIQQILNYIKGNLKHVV
pIC50: −log10 of the molar value.
TEST READOUT: pIC50

- COc1ccc(S(=O)(=O)N2CCc3cc(C=CC(=O)NO)ccc32)cc1: 7.65

###

Listing: melting point of selected compounds
TEST READOUT: melting point

• CN(C)c1cccc2c(S(=O)(=O)N3CCc4cc(C=CC(=O)NO)ccc43)cccc12 [Compound 15] = 142 to 143 °C
• COc1ccc(S(=O)(=O)N2CCc3cc(C=CC(=O)NO)ccc32)cc1OC [Compound 10] = 192 to 193 °C
• Nc1ccc(S(=O)(=O)N2CCc3cc(C=CC(=O)NO)ccc32)cc1 [Compound 14] = 97 to 99 °C
• O=C(C=Cc1ccc2c(c1)CCN2S(=O)(=O)c1ccc([N+](=O)[O-])cc1)NO [Compound 13] = 163 to 165 °C
• O=C(C=Cc1ccc2c(c1)CCN2S(=O)(=O)c1ccc(F)cc1)NO [Compound 11] = 129 to 131 °C
• O=C(C=Cc1ccc2c(c1)CCN2S(=O)(=O)c1ccc(Cl)cc1)NO [Compound 12] = 159 to 160 °C
• COc1cccc(S(=O)(=O)N2CCc3cc(C=CC(=O)NO)ccc32)c1 [Compound 8] = 156 to 157 °C

The origin of these recorded values is patent US20150368195A1.
